B1: library; numbered along this chain (parent)
chain: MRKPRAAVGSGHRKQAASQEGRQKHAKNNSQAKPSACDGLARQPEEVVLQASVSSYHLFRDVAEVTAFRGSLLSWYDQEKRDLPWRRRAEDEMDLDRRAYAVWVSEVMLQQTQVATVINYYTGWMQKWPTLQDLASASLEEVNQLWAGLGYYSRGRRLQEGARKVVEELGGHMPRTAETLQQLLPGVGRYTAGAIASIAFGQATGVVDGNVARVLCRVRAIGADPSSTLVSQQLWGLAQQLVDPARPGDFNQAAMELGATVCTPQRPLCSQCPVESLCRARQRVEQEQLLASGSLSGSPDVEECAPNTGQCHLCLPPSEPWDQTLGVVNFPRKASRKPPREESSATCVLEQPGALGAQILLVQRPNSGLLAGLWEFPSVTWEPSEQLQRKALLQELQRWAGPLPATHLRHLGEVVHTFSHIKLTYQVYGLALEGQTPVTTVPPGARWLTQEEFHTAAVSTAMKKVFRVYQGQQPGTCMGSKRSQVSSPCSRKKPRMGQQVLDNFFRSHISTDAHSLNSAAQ

Variants of: B1
method: 8OG:A repair function score (normalized; synonymous = 0, nonsense = -1) (normalized log-likelihood score); higher = more repair activity (WT-like);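 further: cells sorted at 72 h after reporter transfection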
assay-conditions: with 8OG:A DNA repair reporter (GFP) in HEK-293 MUTYH KO cells
Class 1.0: 8OG:A repair function score at least -0.3. Class 0.0: 8OG:A repair function score below -0.3.

- mutation-name: "T346P"
  discrete-label: 0.0
- mutation-name: "L387H"
  discrete-label: 0.0
- mutation-name: "A220E"
  discrete-label: 0.0
- mutation-name: "L145S"
  discrete-label: 1.0
- mutation-name: "T417K"
  discrete-label: 1.0
- mutation-name: "H407P"
  discrete-label: 1.0
- mutation-name: "R157T"
  discrete-label: 1.0
- mutation-name: "S74H"
  discrete-label: 1.0

Exercise: Given `R219A` , state whether its 8OG:A repair function score is at least -0.3.
Key: 0.0

Exercise: Same thing, different variant: `Q144R`
Key: 1.0

Exercise: Same thing, different variant: `L277P`
Key: 0.0

Exercise: Same thing, different variant: `T260V`
Key: 1.0

Exercise: Same thing, different variant: `R409H`
Key: 1.0

Exercise: Same thing, different variant: `N251V`
Key: 0.0

Exercise: Same thing, different variant: `L392N`
Key: 0.0

Exercise: Same thing, different variant: `S231G`
Key: 1.0

Exercise: Same thing, different variant: `Q499E`
Key: 1.0

Exercise: Same thing, different variant: `N119E`
Key: 1.0

Exercise: Same thing, different variant: `V441E`
Key: 1.0

Exercise: Same thing, different variant: `L257F`
Key: 1.0

Exercise: Same thing, different variant: `S55W`
Key: 1.0

Exercise: Same thing, different variant: `R189N`
Key: 0.0
